# SYSTEM: T1, soluble DC-SIGN tetramer (entire extracellular domain including the α-helical neck region) (UniProt Q9NNX6 59-404)
# T1 construct: DC-SIGN, entire extracellular domain (α-helical neck region and carbohydrate recognition domain); also called DC-SIGN ECD; tetrameric DC-SIGN
# T1 sequence (looked up): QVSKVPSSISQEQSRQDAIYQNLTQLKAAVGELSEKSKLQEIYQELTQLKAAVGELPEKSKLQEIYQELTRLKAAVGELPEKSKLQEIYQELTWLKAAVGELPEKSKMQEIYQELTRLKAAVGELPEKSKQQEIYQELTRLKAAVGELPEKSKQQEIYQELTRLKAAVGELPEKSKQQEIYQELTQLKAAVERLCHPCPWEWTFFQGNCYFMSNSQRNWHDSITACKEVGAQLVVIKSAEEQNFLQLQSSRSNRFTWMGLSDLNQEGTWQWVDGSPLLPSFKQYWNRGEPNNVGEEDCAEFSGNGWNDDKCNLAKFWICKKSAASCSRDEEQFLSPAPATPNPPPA
# ASSAY_REMARKS: ELISA; DC-SIGN or DC-SIGNR (tetramer or monomer) coated (5, 2.5, 1.25, 0.625 µg/well, carbonate-bicarbonate buffer pH 9.6); ghA, ghB, ghC or mutants 2.5 µg/100 µl in 50 mM NaCl, 100 mM Tris-HCl pH 7.5, 5 mM CaCl2; 37°C 1.5 h then 4°C 1.5 h; detected with anti-MBP; percent binding against the wild-type module as 100%
# REPORTED_CONDITIONS: both partners purified
Listed binders paired with reported % binding (wild-type module = 100%)
OUTCOME_MEASURE: % binding (wild-type module = 100%)

# BINDER, UNIT_SPEC, ENDPOINT_RESULT
records = [
    ("recombinant globular head module ghB of human C1q, fused to maltose-binding protein (domain or fragment, UniProt P02746 117-253, looked up, globular head region of the B chain of human C1q (ghB module); source: E. coli BL21, purified (amylose resin)) KATQKIAFSATRTINVPLRRDQTIRFDHVITNMNNNYEPRSGKFTCKVPGLYYFTYHASSRGNLCVNLMRGRERAQKVVTFCDYAYNTFQVTTGGMVLKLEQGENVFLQATDKNSLLGMEGANSIFSGFLLFPDMEA", "%", 100),
    ("recombinant globular head module ghC of human C1q, fused to maltose-binding protein (domain or fragment, UniProt P02747 115-245, looked up, globular head region of the C chain of human C1q (ghC module); as I recall ghC is residues 87-217 of the mature C chain with MBP at the N-terminus; source: E. coli BL21, purified (amylose resin)) KQKFQSVFTVTRQTHQPPAPNSLIRFNAVLTNPQGDYDTSTGKFTCKVPGLYYFVYHASHTANLCVLLYRSGVKVVTFCGHTSKTNQVNSGGVLLRLQVGEEVWLAVNDYYDMVGIQGSDSVFSGFLLFPD", "%", 100),
    ("recombinant globular head module ghA of human C1q, fused to maltose-binding protein (domain or fragment, UniProt P02745 110-245, looked up, globular head region of the A chain of human C1q (ghA module); as I recall ghA is residues 88-223 of the mature A chain with MBP at the N-terminus; source: E. coli BL21, purified (amylose resin)) KDQPRPAFSAIRRNPPMGGNVVIFDTVITNQEEPYQNHSGRFVCTVPGYYYFTFQVLSQWEICLSIVSSSRGQVRRSLGFCDTTNKGLFQVVSGGMVLQLQQGDQVWVEKDPKKGHIYQGSEADSVFSGFLIFPSA", "%", 100),
    ("ghB substitution mutant Leu^B136Gly (domain or fragment) KATQKIAFSATRTINVPLRRDQTIRFDHVITNMNNNYEPRSGKFTCGVPGLYYFTYHASSRGNLCVNLMRGRERAQKVVTFCDYAYNTFQVTTGGMVLKLEQGENVFLQATDKNSLLGMEGANSIFSGFLLFPDMEA", "%", 47.7),
]
